Catalogue of melting point values

COc1cc2c3ccc(OC)c(OC)c3n(S(C)(=O)=O)c2cc1OC : 164 to 165 °C

### Prompt Recorded melting point for Cc1cccc(NC(=O)NC2N=C(c3ccccc3F)c3ccccc3N(CC(=O)O)C2=O)c1 (racemic) , please?
### Response 167 to 169 °C

### Prompt Recorded melting point for CC(C)NC(=O)c1c(F)cccc1S(=O)C(C)(C)C (centres undefined) , please?
### Response 120 to 135 °C

### Prompt Recorded melting point for `CCCc1c(OCCCCCOc2ccc(C(=O)CCCC(=O)O)cc2CCC(=O)O)ccc2c1OCCC2=O` , please?
### Response 151 to 154 °C

### Prompt Recorded melting point for `Cc1cc2c(cc1C=O)C(C)(C)CCC2(C)C` , please?
### Response 82.4 to 84.1 °C

### Prompt Recorded melting point for Cc1ncc([N+](=O)[O-])n1CCN1C(=O)NC2(C1=O)C1CC3CC(C1)CC2C3 (centres undefined) , please?
### Response 276 to 280 °C
